Examples of compounds with documented INH follow.
Molecular target: Cytochrome P450 1A2 (Homo sapiens)
Sequence (P05177 whole entry): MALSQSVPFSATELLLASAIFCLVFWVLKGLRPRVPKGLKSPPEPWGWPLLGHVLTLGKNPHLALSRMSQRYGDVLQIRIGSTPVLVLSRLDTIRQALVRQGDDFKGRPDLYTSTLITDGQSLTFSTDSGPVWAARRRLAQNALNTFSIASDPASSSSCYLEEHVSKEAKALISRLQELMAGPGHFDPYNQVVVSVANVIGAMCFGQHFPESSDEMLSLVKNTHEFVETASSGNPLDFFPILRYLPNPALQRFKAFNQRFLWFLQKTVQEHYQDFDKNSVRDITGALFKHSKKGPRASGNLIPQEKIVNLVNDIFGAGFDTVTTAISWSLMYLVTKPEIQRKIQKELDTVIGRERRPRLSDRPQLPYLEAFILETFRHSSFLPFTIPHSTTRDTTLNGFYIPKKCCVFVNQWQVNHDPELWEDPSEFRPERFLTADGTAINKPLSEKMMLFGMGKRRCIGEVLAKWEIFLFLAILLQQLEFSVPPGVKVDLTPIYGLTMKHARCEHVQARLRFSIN
Assay: Inhibition of human CYP1A2
Assay type: ADME

{"chem_smiles": "COc1ncnc(Cn2cc(C(=O)NCC3CC3)c3ncccc32)c1C", "target": "Cytochrome P450 1A2 (Homo sapiens)", "INH": "> 50 µM"}
{"chem_smiles": "COc1ncnc(Cn2cc(C(=O)NCCO)c3ncc(C)cc32)c1C", "target": "Cytochrome P450 1A2 (Homo sapiens)", "INH": "> 50 µM"}
{"chem_smiles": "COc1ncnc(Cn2cc(C(=O)NCCF)c3ncccc32)c1C", "target": "Cytochrome P450 1A2 (Homo sapiens)", "INH": "> 50 µM"}
{"chem_smiles": "COc1ncnc(Cn2cc(C(=O)NCCF)c3ncc(C)cc32)c1C", "target": "Cytochrome P450 1A2 (Homo sapiens)", "INH": "> 50 µM"}
